These measurements were taken from the METLIN SMRT retention time set (Domingo-Almenara et al. 2019).

Measured RP-LC retention time, listed per entry.
# Assay text: gradient 5% acetonitrile 3 min, to 50% in 2 min, to 85% in 15 min, held 3 min, 100 µL/min
# Settings: column: Zorbax Extend-C18 2.1 x 50 mm; eluents: water / acetonitrile, 0.1% formic acid
Unit s implied. Number only.

# example entries with known answers
Smiles str | RP-LC retention time, s
Cc1ccc(C(=O)N2CCC3(CC2)NC(=O)c2cc(C)ccc2N3C)cc1 | 805
COc1ccc(C(=O)NCc2nc3ccccc3[nH]2)cc1 | 555
CNC(=O)[C@@H]1CN(C(=O)c2ccc3c(c2)OCO3)C[C@H]1c1n[nH]c(C)n1 | 580
Cc1noc(C)c1CN1CCN(C(=O)c2cc(-c3ccco3)on2)CC1 | 572
Clc1cccc(-c2nnc(-c3nc(NCc4cccnc4)c4ccccc4n3)o2)c1 | 705

Lab note: next molecule to report on.
Record request: RP-LC retention time value, item COCCNC(=O)NCc1ccc2c(c1)N(C(=O)c1ccc(C)cc1)CC2
723
